- Tested on: Acinetobacter baumannii
- TEST_NAME: Antimicrobial activity against Acinetobacter baumannii 501 isolate harboring bla IMP-1 carrying integron In86 containing aminoglycoside resistance gene aac(6')-3
- Format: functional
READOUT_KIND: MIC

Requested field: MIC. Item: C[C@H]1[C@H](NC(=O)/C(=N\OC(C)(C)C(=O)O)c2csc(N)n2)C(=O)N1S(=O)(=O)O > 16 µg/mL

Requested field: MIC. Item: C[C@@H](O)[C@H]1C(=O)N2C(C(=O)O)=C(S[C@@H]3CN[C@H](C(=O)N(C)C)C3)[C@H](C)[C@H]12 > 8 µg/mL

Requested field: MIC. Item: NC[C@H]1O[C@H](O[C@H]2[C@H](O)[C@@H](O[C@H]3O[C@H](CO)[C@@H](O)[C@H](N)[C@H]3O)[C@H](N)C[C@@H]2N)[C@H](N)C[C@@H]1O > 16 µg/mL

Requested field: MIC. Item: CC(C)(O/N=C(\C(=O)N[C@@H]1C(=O)N2C(C(=O)[O-])=C(C[n+]3ccccc3)CS[C@H]12)c1csc(N)n1)C(=O)O > 16 µg/mL

----------
Listed compounds paired with reported MIC
- System: Acinetobacter sp.
- TEST_NAME: Antimicrobial activity against Acinetobacter sp. 5248 isolate harboring bla IMP-1 carrying integron In86 containing aminoglycoside resistance gene aac(6')-3
- Type: functional

Before answering, review these 3 worked examples.
# INPUT_SMILES, READOUT_KIND, DATA_VALUE
data = [
    ("C[C@@H](O)[C@H]1C(=O)N2C(C(=O)O)=C(S[C@@H]3CN[C@H](C(=O)N(C)C)C3)[C@H](C)[C@H]12", "MIC", "> 8 mg/L"),
    ("CC(C)(O/N=C(\\C(=O)N[C@@H]1C(=O)N2C(C(=O)[O-])=C(C[n+]3ccccc3)CS[C@H]12)c1csc(N)n1)C(=O)O", "MIC", "> 16 mg/L"),
    ("C[C@H]1COc2c(N3CCN(C)CC3)c(F)cc3c(=O)c(C(=O)O)cn1c23.C[C@H]1COc2c(N3CCN(C)CC3)c(F)cc3c(=O)c(C(=O)O)cn1c23.O", "MIC", "4 mg/L"),
]

Requested field: MIC. Item: C[C@H]1[C@H](NC(=O)/C(=N\OC(C)(C)C(=O)O)c2csc(N)n2)C(=O)N1S(=O)(=O)O > 16 mg/L

----------
Listed compounds paired with reported MIC
- Test system: Acinetobacter baumannii
- TEST_NAME: Antimicrobial activity against Acinetobacter baumannii 695 isolate harboring bla IMP-1 carrying integron In86 containing aminoglycoside resistance gene aac(6')-3
- Format: functional

Before answering, review these 3 worked examples.
# INPUT_SMILES, SUBJECT_OF_TEST, MIC
rows = [
    ("C[C@H]1COc2c(N3CCN(C)CC3)c(F)cc3c(=O)c(C(=O)O)cn1c23.C[C@H]1COc2c(N3CCN(C)CC3)c(F)cc3c(=O)c(C(=O)O)cn1c23.O", "Acinetobacter baumannii", "> 4 µg/mL"),
    ("O=C(O)c1cn(C2CC2)c2cc(N3CCNCC3)c(F)cc2c1=O", "Acinetobacter baumannii", "> 4 µg/mL"),
    ("CC1(C)S[C@@H]2[C@H](NC(=O)[C@H](N)c3ccccc3)C(=O)N2[C@H]1C(=O)O", "Acinetobacter baumannii", "> 16 µg/mL"),
]

// next entry
Requested field: MIC. Item: C[C@@H](O)[C@H]1C(=O)N2C(C(=O)O)=C(S[C@@H]3CN[C@H](C(=O)N(C)C)C3)[C@H](C)[C@H]12 > 8 µg/mL

----------
Listed compounds paired with reported MIC
- Test system: Acinetobacter baumannii
- TEST_NAME: Antimicrobial activity against Acinetobacter baumannii 501 isolate harboring bla IMP-1 carrying integron In86 containing aminoglycoside resistance gene aac(6')-3
- Format: functional

# INPUT_SMILES, MIC
measured = [
    ("CO/N=C(\\C(=O)N[C@@H]1C(=O)N2C(C(=O)[O-])=C(C[N+]3(C)CCCC3)CS[C@H]12)c1csc(N)n1", "> 16 µg/mL"),
]

Requested field: MIC. Item: CC1(C)S[C@@H]2[C@H](NC(=O)[C@H](N)c3ccccc3)C(=O)N2[C@H]1C(=O)O > 16 µg/mL

Requested field: MIC. Item: CC1(C)S[C@@H]2[C@H](NC(=O)[C@H](C(=O)O)c3ccsc3)C(=O)N2[C@H]1C(=O)O > 128 µg/mL

Requested field: MIC. Item: CCN[C@@H]1C[C@H](N)[C@@H](O[C@H]2OC(CN)=CC[C@H]2N)[C@H](O)[C@H]1O[C@H]1OC[C@](C)(O)[C@H](NC)[C@H]1O > 32 µg/mL

Values were extracted from ChEMBL document CHEMBL1157360.
